Measured melting point, listed per entry.

Look over these answered cases.
# compound, melting point
rows = [
    ("O=C(O)c1cc(OCC(F)(F)F)ccc1[N+](=O)[O-]", "156 to 158 °C"),
    ("O=C(O)Cc1c[nH]c2cccc(Br)c12", "184 to 186 °C"),
    ("N#Cc1cc(C(=O)C(Cl)(Cl)Cl)c[nH]1", "129 to 131 °C"),
    ("O=S1(=O)CC(O)C(NCCO)C1 (configuration not stated)", "115 to 117 °C"),
    ("O=C(O)C1CCCN1S(=O)(=O)c1ccccc1 (configuration not stated)", "79 to 81 °C"),
]

Lookup: Request the reported melting point associated with COC(=O)c1cc2c(OC)c(OC)c(OC)cc2[nH]1
Found: 136 to 138 °C

Lookup: Request the reported melting point associated with COc1ccc(NC(=O)/C=N/O)cc1
Found: 180 to 182 °C

Lookup: Request the reported melting point associated with CN(C)C(=O)c1cc(Oc2ccc(N)cc2)ccn1
Found: 113 to 115 °C

Lookup: Request the reported melting point associated with CC1CC1c1cc(N)on1 (configuration not stated)
Found: 55 to 57 °C

Lookup: Request the reported melting point associated with CN(C)S(=O)(=O)c1ccc2[nH]c(CO)nc2c1
Found: 232 to 234 °C

* * *

Measured melting point, listed per entry.

Look over these answered cases.
# molecule, melting point
rows = [
    ("O=c1c2ccccc2ncn1CCBr", "105 to 107 °C"),
    ("Cc1ccc(-n2cc(SC(=O)N(C)C)cn2)cc1", "95 to 97 °C"),
    ("C=CCn1c(S)n[nH]c1=O", "135 to 137 °C"),
    ("CS(=O)(=O)N1CCNC(=O)C1", "164 to 166 °C"),
    ("COCCNc1c(N)n(Cc2ccccc2)c(=O)[nH]c1=O", "209 to 211 °C"),
    ("COc1ccc(CC(O)C(=O)O)cc1 (stereo not given)", "84 to 86 °C"),
]

Lookup: Request the reported melting point associated with O=S1(=O)Cc2ccccc2N1
Found: 123 to 125 °C

* * *

Measured melting point, listed per entry.

# compound, melting point
records = [
    ("Cc1ccc(F)c2c1NC(=O)C2=O", "227 to 229 °C"),
    ("COc1ccc(Cl)cc1CCl", "44 to 46 °C"),
    ("CS(=O)(=O)c1cccc(C(=O)c2ccc(F)cc2)c1", "66 to 68 °C"),
    ("Fc1ccc2ccc(Cl)nc2c1", "97 to 99 °C"),
]

Please find the next compound below.
Lookup: Request the reported melting point associated with CN(C)S(=O)(=O)c1ccc2c(c1)NCCC2
Found: 130 to 132 °C

* * *

Measured melting point, listed per entry.

Look over these answered cases.
# molecule, melting point
records = [
    ("O=C(O)c1sc2ccccc2c1CSc1ccccc1Cl", "183 to 185 °C"),
    ("CCOC(=O)CN(CCC#N)c1ccc(OC)cc1", "61 to 63 °C"),
    ("CCCc1nc2c(c(=O)[nH]1)CCN(Cc1ccccc1)C2", "171 to 173 °C"),
]

Please find the next molecule below.
Lookup: Request the reported melting point associated with Cc1cc(C=O)c(C)n1-c1ccc(F)c(F)c1F
Found: 89 to 91 °C

* * *

Measured melting point, listed per entry.

# compound, property-name, experimental-result
records = [
    ("CC(C)(C)OC(=O)N1CC(=CC(=O)O)C1", "melting point", "140 to 142 °C"),
    ("O=C(O)/C=C/c1cc2ccccc2o1", "melting point", "213 to 215 °C"),
    ("COC(=O)c1cc2c(F)cc(Br)cc2[nH]1", "melting point", "190 to 192 °C"),
    ("Nc1ccc2c(c1)C(=O)N(c1ccc(F)cc1)C2=O", "melting point", "211 to 213 °C"),
]

Lookup: Request the reported melting point associated with CN1CCC(=O)Nc2cc(F)ccc21
Found: 143 to 145 °C

Lookup: Request the reported melting point associated with CCOC(=O)C1=C(C)NN=C(C)C1
Found: 99 to 101 °C

Lookup: Request the reported melting point associated with Cc1ccc(C(=O)CBr)cc1[N+](=O)[O-]
Found: 45 to 47 °C

Lookup: Request the reported melting point associated with CC(=O)Nc1cccc2c1CCCN2
Found: 144 to 146 °C

Lookup: Request the reported melting point associated with Cc1c(N)cc(C(=O)NC(C)c2ccccc2)cc1F (centres undefined)
Found: 96 to 98 °C

Lookup: Request the reported melting point associated with O=C(CBr)c1cccc(N2CCCC2=O)c1
Found: 83 to 85 °C

Lookup: Request the reported melting point associated with Cc1cc(C(C)(C)C)cc(C)c1S(=O)(=O)Cl
Found: 113 to 115 °C

* * *

Measured melting point, listed per entry.

Look over these answered cases.
# molecule, melting point
measured = [
    ("CCS(=O)(=O)Nc1ccccc1F", "68 to 70 °C"),
    ("Fc1ccc(-c2nnc(Cl)c3ccccc23)cc1F", "164 to 166 °C"),
    ("Cc1cc(CC(=O)O)c(C)n1-c1ccc(Cl)cc1", "118 to 120 °C"),
    ("CC(C)(C)OC(=O)Nc1cnc(C(=O)O)cn1", "261 to 263 °C"),
    ("O=C(NCCc1ccccc1)n1ccnc1", "103 to 105 °C"),
]

Lookup: Request the reported melting point associated with CCOC(=O)c1cnc2c(OC)ccc(OC)c2c1Cl
Found: 87 to 89 °C

Lookup: Request the reported melting point associated with CC(C)(C)OC(=O)NCC1CCC(C(=O)O)CC1 (stereo not given)
Found: 132 to 134 °C

Lookup: Request the reported melting point associated with CCOC(=O)c1cc2ccc(Br)cc2[nH]1
Found: 187 to 189 °C

Lookup: Request the reported melting point associated with NC(C(=O)O)c1cccc(Br)c1 (stereo not given)
Found: 221 to 223 °C

Lookup: Request the reported melting point associated with O=C(O)C1CCCN(c2nccs2)C1 (stereo not given)
Found: 121 to 123 °C

* * *

property-name: melting point

Look over these answered cases.
# compound, melting point
measured = [
    ("Nn1c(S)nnc1C1CCCO1 (configuration not stated)", "143 to 147 °C"),
    ("Cc1cccc(C)c1NC(=O)CN1CCNCC1", "53 to 55 °C"),
]

Lookup: Request the reported melting point associated with O=C(O)c1cc(CO)on1
Found: 129 to 131 °C

Lookup: Request the reported melting point associated with O=C(NCCO)c1ccc([N+](=O)[O-])cc1Cl
Found: 173 to 175 °C

Lookup: Request the reported melting point associated with Cc1sc(N=CN(C)C)c(C#N)c1C
Found: 117 to 119 °C

* * *

Measured melting point, listed per entry.

Look over these answered cases.
# molecule, property-name, experimental-result
rows = [
    ("COC(=O)c1n[nH]c(=O)c2ccccc12", "melting point", "127 to 129 °C"),
    ("O=C(O)Cc1coc2cc3c(cc12)CCC3", "melting point", "151 to 153 °C"),
    ("Cc1cc(Cl)ccc1OC(C(=O)O)c1ccccc1 (stereo not given)", "melting point", "122 to 124 °C"),
    ("NCC(O)(c1ccccc1)C(F)(F)F (stereo not given)", "melting point", "76 to 78 °C"),
    ("O=C(CCl)NCC1(c2ccccc2)CCCC1", "melting point", "74 to 76 °C"),
    ("CC(C)Oc1nnc(S)s1", "melting point", "105 to 107 °C"),
    ("O=C(O)Cc1c[nH]c2ccc([N+](=O)[O-])cc12", "melting point", "189 to 191 °C"),
    ("Nc1nc2c(s1)COc1ccccc1-2", "melting point", "190 to 192 °C"),
    ("Cc1cccc(COc2cccc(C(=O)O)c2)c1", "melting point", "124 to 126 °C"),
    ("COC(=O)C(Br)CN1C(=O)c2ccccc2C1=O (stereo not given)", "melting point", "99 to 101 °C"),
]

Lookup: Request the reported melting point associated with Clc1cc(Cl)cc(-c2noc(Cl)n2)c1
Found: 67 to 69 °C

Lookup: Request the reported melting point associated with CC(C)(C(=O)O)C(O)c1cccc(O)c1 (stereo not given)
Found: 163 to 165 °C

Lookup: Request the reported melting point associated with O=C1CCc2ccccc2CN1
Found: 124 to 126 °C

Lookup: Request the reported melting point associated with NCc1nnc(-c2cccc(Br)c2)o1
Found: 98 to 100 °C

Lookup: Request the reported melting point associated with C#CCNC(=O)Nc1ccc(C(C)=O)cc1
Found: 169 to 171 °C

Lookup: Request the reported melting point associated with NC(=NO)c1ccsc1
Found: 66 to 68 °C

Lookup: Request the reported melting point associated with CCc1cccc(CC(=O)O)c1
Found: 58 to 60 °C

Lookup: Request the reported melting point associated with Cc1cc(C)c2c(n1)NCC(=O)N2
Found: 209 to 211 °C
